biological target: adenosine A1 receptor (Rattus norvegicus); construct: Whole brain minus cerebellum and brainstem from male Long Evans rats (150-200 g) was homogenized; assay: Adenosine Receptor Binding - A1 Receptor Affinity (RBA1); conditions: [3H]-CHA, rat whole brain membranes; read-out: RBA-1
Sequence (P25099 whole entry): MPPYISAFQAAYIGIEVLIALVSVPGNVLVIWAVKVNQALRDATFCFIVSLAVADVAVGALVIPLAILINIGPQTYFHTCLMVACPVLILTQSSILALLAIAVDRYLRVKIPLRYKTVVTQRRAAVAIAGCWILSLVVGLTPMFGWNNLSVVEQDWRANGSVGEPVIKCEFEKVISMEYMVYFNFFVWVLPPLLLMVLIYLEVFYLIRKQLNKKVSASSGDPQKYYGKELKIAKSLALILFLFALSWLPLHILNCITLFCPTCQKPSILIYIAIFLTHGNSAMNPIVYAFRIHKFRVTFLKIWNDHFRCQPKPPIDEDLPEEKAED
pIC50: −log10 of the molar value.
Parameter threshold = 7. Response is Condition met when pIC50 meets or exceeds it, else Condition not met.

{"columns": ["molecule", "class_label"],
 "data": [
  ["O[C@@H]1[C@H](O)[C@@H](COCc2ccccc2)O[C@H]1n1cnc2c(NC3CCCc4ccccc43)ncnc21 (some centres unmarked)", "Condition not met"],
  ["CC(=O)OC[C@H]1O[C@@H](n2cnc3c(NC4CCCc5ccccc54)ncnc32)[C@H](O)[C@@H]1O (some centres unmarked)", "Condition not met"],
  ["OC[C@H]1O[C@@H](n2cnc3c(NCC4=CCCCc5ccccc54)ncnc32)[C@H](O)[C@@H]1O", "Condition not met"],
  ["COc1ccc2c(c1)C(Nc1ncnc3c1ncn3[C@H]1O[C@H](CO)[C@@H](O)[C@H]1O)CCC2 (some centres unmarked)", "Condition not met"],
  ["OC[C@H]1O[C@@H](n2cnc3c(NCC4CCCCc5ccccc54)ncnc32)[C@H](O)[C@@H]1O (some centres unmarked)", "Condition not met"],
  ["COc1ccc2c(c1)C(Nc1ncnc3c1ncn3[C@@H]1O[C@H](CO)[C@@H](O)[C@H]1O)CCC2 (single isomer, unassigned) [Example 8]", "Condition met"],
  ["O=C(OC[C@H]1O[C@@H](n2cnc3c(NC4CCCc5ccccc54)ncnc32)[C@H](O)[C@@H]1O)c1ccccc1 (some centres unmarked)", "Condition not met"],
  ["CC(=O)Oc1ccccc1C(=O)OC[C@H]1O[C@@H](n2cnc3c(NC4CCCc5ccccc54)ncnc32)[C@H](O)[C@@H]1O (some centres unmarked)", "Condition not met"],
  ["OC[C@H]1O[C@@H](n2cnc3c(NCC4=CCc5ccccc54)ncnc32)[C@H](O)[C@@H]1O [Example 22, N^6-[1H-inden-3-yl]methyladenosine]", "Condition met"],
  ["OC[C@H]1O[C@@H](n2cnc3c(NCC4(O)CCCCc5ccccc54)ncnc32)[C@H](O)[C@@H]1O (some centres unmarked)", "Condition not met"],
  ["CC1CCc2ccccc2C1Nc1ncnc2c1ncn2[C@@H]1O[C@H](CO)[C@@H](O)[C@H]1O (some centres unmarked) [Example 4, N^6-[1-(2-Methyl)-tetralinyl]-adenosine]", "Condition met"]
]}

====

Entries and their Screen test failure
test system: Swiss-Webster male mice; assay: Mouse Activity and Screen Test Procedure (MAST): screen test (ST); type: in vivo; conditions: 10 mg/kg intraperitoneally, one hour postinjection
observed_property: Screen test failure (%)

{"columns": ["molecule", "scale_unit", "readout_value"],
 "data": [
  ["CC1CCc2ccccc2C1Nc1ncnc2c1ncn2[C@@H]1O[C@H](CO)[C@@H](O)[C@H]1O (stereo partly drawn) [Example 4, N^6-[1-(2-Methyl)-tetralinyl]-adenosine]", "%", 77],
  ["OC[C@H]1O[C@@H](n2cnc3c(NC4CCCc5c(O)cccc54)ncnc32)[C@H](O)[C@@H]1O (stereo partly drawn) [Example 16, N^6-[1-(5-hydroxy)-tetralinyl]-adenosine]", "%", 0],
  ["COc1ccc2c(c1)C(Nc1ncnc3c1ncn3[C@@H]1O[C@H](CO)[C@@H](O)[C@H]1O)CCC2 (single isomer, unassigned) [Example 5, N6-[1-(7-Methoxy)-tetralinyl]-adenosine]", "%", 11],
  ["CCOC(=O)OC[C@H]1O[C@@H](n2cnc3c(NC4CCCc5ccccc54)ncnc32)[C@H](OC(=O)OCC)[C@@H]1OC(=O)OCC (stereo partly drawn)", "%", 0],
  ["OC[C@H]1O[C@@H](n2cnc3c(NCC4CCCCc5ccccc54)ncnc32)[C@H](O)[C@@H]1O (stereo partly drawn)", "%", 11],
  ["COc1ccc2c(c1)C(Nc1ncnc3c1ncn3[C@H]1O[C@H](CO)[C@@H](O)[C@H]1O)CCC2 (stereo partly drawn)", "%", 0],
  ["OC[C@H]1O[C@@H](n2cnc3c(NCC4CCc5ccccc54)ncnc32)[C@H](O)[C@@H]1O (stereo partly drawn)", "%", 22],
  ["OC[C@H]1O[C@@H](n2cnc3c(NCC4=CCCCc5ccccc54)ncnc32)[C@H](O)[C@@H]1O", "%", 22],
  ["OC[C@H]1O[C@@H](n2cnc3c(NCC4=CCCc5ccccc54)ncnc32)[C@H](O)[C@@H]1O", "%", 22],
  ["COc1ccc2c(c1)CCCC2Nc1ncnc2c1ncn2[C@@H]1O[C@H](CO)[C@@H](O)[C@H]1O (stereo partly drawn) [Example 6, N^6-[1-(6-Methoxy)-tetralinyl]-adenosine]", "%", 0],
  ["Cc1cc(C)c2c(c1)C(Nc1ncnc3c1ncn3[C@@H]1O[C@H](CO)[C@@H](O)[C@H]1O)CCC2 (stereo partly drawn)", "%", 0],
  ["CC1(C)O[C@@H]2[C@H](O1)[C@@H](CO)O[C@H]2n1cnc2c(NC3CCCc4ccccc43)ncnc21 (stereo partly drawn)", "%", 0]
]}
